Test system: HEK293
method: Viability assay (CellTiter-Glo), HEK293
Assay type: cell-based, human
study_conditions: 120 μM, CellTiter-Glo
endpoint_label: Cell viability (%) HEK293 120 μM
Answers are plain numbers, in %.

Example cases with answers are listed next.
compound: C#Cc1ccc2c(c1)C(c1ccccc1F)=N[C@H](C)C(=O)N2 [GL-I-62]
units_of_measure: %
readout_number: 79
//
compound: C#Cc1ccc2c(c1)C(c1ccccc1)=NCC(=O)N2C [QH-II-66]
units_of_measure: %
readout_number: 81
//
compound: C#Cc1ccc2c(c1)C(c1ccccc1F)=NC(C)C(=O)N2C (stereo not drawn) [GL-III-24]
units_of_measure: %
readout_number: 78
//
compound: CC1N=C(c2ccccc2F)c2cc(Br)ccc2-n2cnc(C=O)c21 (stereo not drawn) [GL-III-35]
units_of_measure: %
readout_number: 79
//
compound: C#Cc1ccc2c(c1)C(c1ccccn1)=N[C@H](C)c1c(C(=O)OC)ncn1-2 [GL-II-32]
units_of_measure: %
readout_number: 80

Now look at this entry.
Reported Cell viability (%) HEK293 120 μM, compound C[C@H]1N=C(c2ccccc2F)c2cc(Br)ccc2-n2cnc(-c3cnco3)c21 [GL-III-36] : ____
80

Provenance of the data: patent US20240279232A1
